B1: library; numbered along this chain (parent)
chain: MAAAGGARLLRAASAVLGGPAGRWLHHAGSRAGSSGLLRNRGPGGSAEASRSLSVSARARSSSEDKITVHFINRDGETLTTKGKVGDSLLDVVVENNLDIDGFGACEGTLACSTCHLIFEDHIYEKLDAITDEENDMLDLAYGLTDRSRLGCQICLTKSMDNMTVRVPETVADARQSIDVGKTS

# Variants of: B1
# Method: scaled log2 fold change in cell abundance, elesclomol vs control (0 = silent mean, 1 = nonsense mean) (scaled log2 ratio); higher = higher viability under elesclomol (loss of FDX1 cuproptosis function);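 note: variant abundance is its share of total variant reads in each endpoint sample, from next-generation sequencing of the integrated ORF PCR-amplified out of genomic DNA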
# Test Context: with ABC1 FDX1 KO; elesclomol 5 nM; glucose 10 mM; 14 days

| Variant Key | scaled log2 fold change |
| --- | --- |
| I72C | 0.238 |
| R8L | -0.0928 |
| L53A | 0.205 |
| W24V | 0.155 |
| A105F | 0.0682 |
| G19D | 0.233 |
| A141V | 0.00876 |
| L110D | 0.955 |
| D128W | -0.0394 |
| K126L | -0.515 |
| L10E | 0.307 |
| G108L | 1.02 |
| L150W | 1.06 |
| A172C | -0.253 |
| A7K | 0.136 |
| D121C | -0.164 |
| T80R | -0.0268 |
| H116M | -1.26 |
| T114S | -0.416 |
| A172E | 0.236 |
| A2N | -0.0435 |
| T78P | -0.0243 |
| D128P | 0.196 |
| G29F | -0.118 |
| G104L | 1.03 |
| T157H | -0.268 |
| G18S | 0.392 |
| A2L | 0.0991 |
| E107D | -0.195 |
| G108R | 0.794 |
| H122N | 0.564 |
| G108F | 1.12 |
| T78I | -0.229 |
| H116Q | -0.185 |
| K82H | -0.223 |
| D87T | -0.14 |
| E107F | -0.754 |
| G108M | 0.834 |
| A172L | -0.0445 |
| S50L | -0.847 |
| A49M | -0.695 |
| N135I | -0.261 |
| Y142W | -0.245 |
| S50W | -0.149 |
| L10S | 0.48 |
| V94T | -0.0231 |

Taken from the supplement of paper PMC12855868.
